measured_on: KDM5A (Homo sapiens)
Sequence (P29375 whole entry): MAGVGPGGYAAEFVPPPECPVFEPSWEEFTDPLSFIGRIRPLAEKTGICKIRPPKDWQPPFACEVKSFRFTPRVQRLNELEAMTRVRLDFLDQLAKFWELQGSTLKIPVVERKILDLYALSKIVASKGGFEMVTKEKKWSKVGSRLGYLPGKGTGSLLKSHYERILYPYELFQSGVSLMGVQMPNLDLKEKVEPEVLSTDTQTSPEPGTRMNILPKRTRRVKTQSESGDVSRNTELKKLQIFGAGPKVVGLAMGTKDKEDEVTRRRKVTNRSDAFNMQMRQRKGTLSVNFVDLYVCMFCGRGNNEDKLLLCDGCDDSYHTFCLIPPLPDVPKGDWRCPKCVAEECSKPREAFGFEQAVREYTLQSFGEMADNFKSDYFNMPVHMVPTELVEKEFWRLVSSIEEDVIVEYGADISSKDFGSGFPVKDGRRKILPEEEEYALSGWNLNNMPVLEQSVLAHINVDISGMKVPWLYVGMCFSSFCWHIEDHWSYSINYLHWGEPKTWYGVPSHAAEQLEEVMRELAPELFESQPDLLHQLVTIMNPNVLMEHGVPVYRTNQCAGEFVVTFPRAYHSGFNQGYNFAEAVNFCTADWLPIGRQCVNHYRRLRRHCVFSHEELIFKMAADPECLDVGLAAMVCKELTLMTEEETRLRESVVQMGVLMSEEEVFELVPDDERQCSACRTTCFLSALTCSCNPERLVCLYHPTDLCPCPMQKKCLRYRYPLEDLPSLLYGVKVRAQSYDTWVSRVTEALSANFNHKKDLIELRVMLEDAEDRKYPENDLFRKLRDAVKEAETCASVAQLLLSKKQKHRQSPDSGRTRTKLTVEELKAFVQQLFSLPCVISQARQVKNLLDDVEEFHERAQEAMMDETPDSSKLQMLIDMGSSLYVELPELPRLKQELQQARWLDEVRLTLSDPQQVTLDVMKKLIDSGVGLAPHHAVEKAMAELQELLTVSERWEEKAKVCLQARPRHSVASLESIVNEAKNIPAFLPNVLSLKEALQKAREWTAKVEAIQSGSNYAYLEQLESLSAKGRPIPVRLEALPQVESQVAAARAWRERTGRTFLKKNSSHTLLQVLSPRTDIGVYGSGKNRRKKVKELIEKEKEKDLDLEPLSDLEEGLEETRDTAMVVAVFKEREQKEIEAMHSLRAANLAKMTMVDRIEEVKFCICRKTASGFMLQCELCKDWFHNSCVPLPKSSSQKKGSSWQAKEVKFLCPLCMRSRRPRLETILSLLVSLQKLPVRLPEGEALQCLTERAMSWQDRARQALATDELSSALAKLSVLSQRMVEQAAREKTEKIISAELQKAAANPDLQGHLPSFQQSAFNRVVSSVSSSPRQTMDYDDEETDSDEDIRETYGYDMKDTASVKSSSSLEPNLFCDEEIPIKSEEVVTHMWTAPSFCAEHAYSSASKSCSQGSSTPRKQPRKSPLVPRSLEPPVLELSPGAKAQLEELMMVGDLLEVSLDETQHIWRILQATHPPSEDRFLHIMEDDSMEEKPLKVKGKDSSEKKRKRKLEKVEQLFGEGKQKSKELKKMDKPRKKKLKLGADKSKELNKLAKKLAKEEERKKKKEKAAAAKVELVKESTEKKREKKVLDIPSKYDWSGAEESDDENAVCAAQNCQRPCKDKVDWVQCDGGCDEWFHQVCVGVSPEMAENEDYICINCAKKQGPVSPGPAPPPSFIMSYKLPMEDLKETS
assay_procedure: ALPHA Screen demethylation assay
Type: biochemical
condition: IC50 (μM) KDM5A

| smiles_input | IC50 |
| --- | --- |
| COC1=C2C[C@@H](C)C[C@H](OC)[C@H](O)[C@@H](C)/C=C(\C)[C@H](OC(N)=O)[C@@H](OC)/C=C\C=C(/C)C(=O)NC(=CC1=O)C2=O | < 1 µM |
